For each entry below, report its pEC50 value.
target: T1, CLDN6 endogenously expressed by human cancer cell lines (ARK2, OVCA429) (human, UniProt P56747 1-220)
T1 construct: Untagged endogenous protein; also called Endogenous CLDN6+
T1 sequence: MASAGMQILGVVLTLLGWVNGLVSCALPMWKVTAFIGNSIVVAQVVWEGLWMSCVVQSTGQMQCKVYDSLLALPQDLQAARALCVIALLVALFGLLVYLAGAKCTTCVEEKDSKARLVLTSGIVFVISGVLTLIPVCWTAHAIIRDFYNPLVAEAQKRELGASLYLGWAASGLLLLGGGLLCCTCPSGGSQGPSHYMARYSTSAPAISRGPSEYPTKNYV
method.description: FACS, AF647-labelled mAb, OVCA429 cells
Scale: pEC50 equals -log10([C]), with [C] in mol/L.

Ask: So what's the measured pEC50 for this one? AB13 (antibody, V domains shown, Labelled with Alexa Fluor 647 NHS ester for FACS) VH: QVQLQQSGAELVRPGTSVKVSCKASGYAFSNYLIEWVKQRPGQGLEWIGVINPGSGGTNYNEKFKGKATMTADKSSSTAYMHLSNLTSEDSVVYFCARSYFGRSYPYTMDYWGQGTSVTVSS VL: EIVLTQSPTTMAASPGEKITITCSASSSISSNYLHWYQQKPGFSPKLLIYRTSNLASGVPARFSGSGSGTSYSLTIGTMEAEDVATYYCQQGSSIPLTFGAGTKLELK
Reply: 5.64

Ask: What do we get for AB12 (antibody, V domains shown, Labelled with Alexa Fluor 647 NHS ester for FACS) VH: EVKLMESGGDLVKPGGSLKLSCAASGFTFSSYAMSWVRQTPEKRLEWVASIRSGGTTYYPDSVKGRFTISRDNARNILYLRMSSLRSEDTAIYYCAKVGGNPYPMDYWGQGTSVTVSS VL: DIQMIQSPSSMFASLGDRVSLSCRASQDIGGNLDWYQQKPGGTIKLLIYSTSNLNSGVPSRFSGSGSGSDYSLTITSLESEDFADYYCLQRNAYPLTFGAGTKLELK ?
Reply: 5.64

# credit: patent US20250333501A1
